TGI reference
Tested on: TK-10 renal
assay.comment: NCI tumour cell line growth inhibition, 48 h

As a guide, the following entries are already answered.
INSERT INTO measurements (compound, system_tested, measured_result) VALUES
  ('NC(=S)N/N=C(/CC(=O)c1ccccc1)C(=O)Nc1ccc(Cl)c(Cl)c1', 'TK-10 renal', '> 100 µM'),
  ('CC1CCCCc2nc3c(c(=O)n21)CCCC3 (stereo unspecified)', 'TK-10 renal', '> 100 µM'),
  ('CN(C)c1nc(=NCc2ccncc2)ss1', 'TK-10 renal', '> 100 µM'),
  ('COc1cc2c(cc1OCCCCOc1cc(-c3ccc(F)cc3)nc(C)n1)N=C[C@@H]1CCCN1C2=O', 'TK-10 renal', '0.487 µM');

Field request: TGI | item: `CCN(CC)CCNc1ccc2nnn3c4ccc(OC)cc4c(=O)c1c23`
23.9 µM

Try this compound too: `COc1ccc(/C(=N/O)c2ccccc2-c2nc3ccccc3c(=O)n2-c2ccc(S(=O)(=O)Nc3ncccn3)cc2)cc1C`
> 31.6 µM

###

Test system: IGROV1 ovarian
assay.comment: NCI tumour cell line growth inhibition, 48 h
attribute.measured: TGI

INSERT INTO assay_data (molecule, attribute_measured, measured_result) VALUES
  ('COc1c(CCC[P+](c2ccccc2)(c2ccccc2)c2ccccc2)cc2c(c1OC)OCO2', 'TGI', '10.7 µM');

# get_value(readout= TGI, system= IGROV1 ovarian) for `COc1ccc(N[C@H](CSc2ccc(C)cc2)c2ccc(F)cc2)cc1`
> 100 µM

And `Oc1ccc(-c2nnc3sc(-c4ccc(F)cc4)nn23)cc1` ?
> 100 µM

Repeat with CC1(C)SC2C(NC(=O)C(N)c3ccccc3)C(=O)N2C1C(=O)O (stereo not given)
> 100 µM

Same question for CC(=O)NC(CCCNCc1ccccc1)C(=O)NCc1ccccc1 (stereo not given) please.
> 100 µM

Also `O=C1CCC(=Nc2ccc(Cl)cc2)N1C(=O)COc1ccc(OCC(=O)N2C(=O)CSC2=Nc2ccc(Cl)cc2)cc1` , if possible.
> 100 µM

CC(C)(C)C[C@H]1NC(C(=O)NCC[C@H](O)CO)[C@H](c2cccc(Cl)c2)[C@@]12C(=O)Nc1cc(Cl)c(F)cc12 (stereo not given in full) , same question.
21.1 µM

What about `Cc1ccncc1.[O]=[Ge].[O]=[Ge].[O]=[Ge].[O]=[Ge].[O]=[Ge].[O]=[Ge][OH].[O]=[Ge][OH]` ?
> 100 µM

###

Test system: SF-295 CNS
assay.comment: NCI tumour cell line growth inhibition, 48 h
attribute.measured: TGI

INSERT INTO results (molecule, attribute_measured, measured_result) VALUES
  ('Cc1ccc(C(=O)O/N=C2/CCC/C2=C\c2ccccc2)cc1', 'TGI', '> 100 µM'),
  ('Cc1cc(N(CCC#N)S(=O)(=O)c2ccccc2)ccc1/C=C1N=C(/C=C/c2ccccc2)OC\1=O', 'TGI', '> 100 µM'),
  ('NC(=S)N/N=C(/CC(=O)c1ccccc1)C(=O)Nc1ccc(Cl)c(Cl)c1', 'TGI', '> 100 µM'),
  ('CN(C)S(=O)(=O)c1ccc(NC(=O)COC(=O)c2ccc(S(=O)(=O)N3CCCCC3)cc2)cc1', 'TGI', '> 100 µM'),
  ('CCCCCCCCCCCCOC(=S)NCCCC', 'TGI', '> 100 µM'),
  ('CC(C)(C)C[C@H]1NC(C(=O)NCC[C@H](O)CO)[C@H](c2cccc(Cl)c2)[C@@]12C(=O)Nc1cc(Cl)c(F)cc12 (stereo not given in full)', 'TGI', '28.1 µM'),
  ('O=C(O)C1CC(c2ccc(F)cc2)=Nc2ccc(F)cc2S1 (stereo not given)', 'TGI', '> 100 µM'),
  ('O=C([O-])c1ccccc1Nc1ccccn1.O=C([O-])c1ccccc1Nc1ccccn1.[Ni+2]', 'TGI', '> 100 µM');

Can you share its TGI? I mean this molecule: `C/C(=N/NC(N)=S)c1ccc2ccccc2c1`
> 100 µM

Also Cc1ccccc1OC(C)C(=O)NN1C(=O)CC(=O)N(c2ccc(Cl)cc2)C1=S (stereo not given) ?
> 100 µM

###

Tested on: DU-145 prostate
assay.comment: NCI tumour cell line growth inhibition, 48 h
TGI values for the molecules below.

A selection of reference data follows.
INSERT INTO measurements (molecule, measured_result) VALUES
  ('Nn1c(CCCCCCCCc2nnc(COc3c(O)ccc4ccccc34)n2N)nnc1COc1c(O)ccc2ccccc12', '> 100 µM'),
  ('COc1cc(C2c3cc4c(cc3OC(NN=C(C)C)C2C)OCO4)cc(OC)c1O (centres undefined)', '> 100 µM'),
  ('Cc1ccc2c(ccc3c[n+]4c5ccccc5ccc4n32)c1', '12.3 µM'),
  ('CC1(C)O[C@@H]2COC(=O)[C@@H]2O1', '> 100 µM'),
  ('NC(CSCc1ccccc1)C(=O)O (centres undefined)', '> 100 µM'),
  ('COc1cc2c(cc1OCCCCOc1cc(-c3ccc(F)cc3)nc(C)n1)N=C[C@@H]1CCCN1C2=O', '50 µM'),
  ('CCCCOC(C)(C)/C=C/C(O)[C@](C)(O)[C@H]1[C@H](O)C[C@@]2(C)[C@@H]3CCc4c(cc(OC5OC(CO)C(O)C(O)C5O)c(O)c4C)C3(C)C(=O)C[C@]12C (some centres undefined)', '> 100 µM'),
  ('COc1cccc(/C=C/C(=O)c2cccc(Nc3nc(Nc4ccccc4)nc(Nc4ccccc4)n3)c2)c1', '> 100 µM');

Test system DU-145 prostate; read-out TGI; what value for `CC(C)NC[C@@H](C(=O)N1CCN(c2ncnc3c2[C@H](C)C[C@H]3O)CC1)c1ccc(Cl)cc1` ?
> 100 µM

And then CC(=O)OC[C@]1(C(=O)C(O)c2ccoc2)[C@H](C)CC[C@@]23COC(=O)C2=CCC[C@@H]31 (some centres undefined) , what is it?
> 10 µM

And for CC(C)(C)C[C@H]1NC(C(=O)NCC[C@H](O)CO)[C@H](c2cccc(Cl)c2)[C@@]12C(=O)Nc1cc(Cl)c(F)cc12 (some centres undefined) ?
30.6 µM

Now consider `Cc1sc(C(=O)Nc2cc(C(=O)NCCCN(C)C)n(C)c2)cc1NC(=O)CCCN1C(=O)c2cccc3cccc(c23)C1=O` .
> 100 µM

###

Test system: A498 renal
assay.comment: NCI tumour cell line growth inhibition, 48 h
attribute.measured: TGI

INSERT INTO assay_data (compound, measured_result) VALUES
  ('O=C1C(c2c(O)[nH]c3ccc(S(=O)(=O)O)cc23)=Nc2ccccc21', '> 100 µM');

Find the measured TGI: item `CCOC(=O)c1[nH]cc(C)c1-c1ccn(-c2ccccc2)c1` , target or system A498 renal.
> 100 µM

Then what about the compound `CCN(CC)CCOC(NC(C)=O)(c1ccccc1)c1ccccc1` ?
> 100 µM

Next: CC(C)(C)C[C@H]1NC(C(=O)NCC[C@H](O)CO)[C@H](c2cccc(Cl)c2)[C@@]12C(=O)Nc1cc(Cl)c(F)cc12 (some centres undefined)
18.7 µM

Query `CCCCn1c2c(n(CCCC)c1=S)-c1c(n(CCCC)c(=S)n1CCCC)S[Se][Se]S2` next
> 100 µM

// same read-out, input: `COc1c(CCC[P+](c2ccccc2)(c2ccccc2)c2ccccc2)cc2c(c1OC)OCO2`
3.3 µM

What do you have for CCCCOC(C)(C)/C=C/C(O)[C@](C)(O)[C@H]1[C@H](O)C[C@@]2(C)[C@@H]3CCc4c(cc(OC5OC(CO)C(O)C(O)C5O)c(O)c4C)C3(C)C(=O)C[C@]12C (some centres undefined) ?
> 100 µM

Please do the same for `O=C1OC(=O)C(c2c[nH]c3ccccc23)=C1c1c[nH]c2ccccc12` as well.
> 25 µM

Same question, `CCNC(=O)Nc1ccccn1` this time
> 100 µM

###

Test system: RXF 393 renal
assay.comment: NCI tumour cell line growth inhibition, 48 h
attribute.measured: GI50

INSERT INTO results (compound, system_tested, measured_result) VALUES
  ('Nc1c(C(=O)Nc2cccc([N+](=O)[O-])c2)sc2nc3c(cc12)C(O)CCC3 (stereo not given)', 'RXF 393 renal', '6.76 µM'),
  ('COC(=O)[C@H](Cc1cn(C)cn1)NC(=O)[C@H](Cc1c[nH]c2ccccc12)NC(=O)Nc1cc(C(F)(F)F)cc(C(F)(F)F)c1', 'RXF 393 renal', '> 10 µM');

Please state recorded GI50 (tested on RXF 393 renal) of `COC(=O)/C=C/C=C(c1ccccc1)c1ccccc1`
6.24 µM

Now the compound `COc1cc(Cl)cc(-c2nn(C(=O)NCCN3CCOCC3)cc2-c2ccncc2)c1`
2.67 µM

Do the same for `COc1c(CCC[P+](c2ccccc2)(c2ccccc2)c2ccccc2)cc2c(c1OC)OCO2` please
2.05 µM
